Entry source: ChEMBL document CHEMBL5380783

system: Fibroblast; experiment: Inhibition of lysosomal defects in Sanfilippo-B patient derived human fibroblast cells assessed as reduction in accumulation of enlarged LAMP1-positive lysosomal structures within the cytoplasm at 20 uM incubated for 48 hrs by LAMP1 staining based indirect immunofluorescence assay; type: functional, cell-based
The source made the active and inactive calls. No cut-off for these calls is given here.

>  <STRUCTURE_SMILES>
CCCCCCCCCN1C[C@@H](O)[C@H](O)[C@@H](O)[C@@H]1CO.Cl

>  <TEST_SYSTEM>
Fibroblast

>  <inhibition>
inactive

$$$$
>  <STRUCTURE_SMILES>
OC[C@H]1NC[C@H](O)[C@@H](O)[C@@H]1O

>  <TEST_SYSTEM>
Fibroblast

>  <inhibition>
inactive

$$$$
>  <STRUCTURE_SMILES>
CCCCCCOCCCCCN1C[C@@H](O)[C@H](O)[C@@H](O)[C@@H]1CO.Cl

>  <TEST_SYSTEM>
Fibroblast

>  <inhibition>
inactive

$$$$
